These entries and their values trace back to ChEMBL document CHEMBL1133739.

tested-on: Amyloid-beta precursor protein (Homo sapiens)
method: Observed stimulation of the production of soluble beta-amyloid precursor protein
Format: functional
measurement-label: Stimulation (%)

>>> observed_measurement("CC12CC[C@@H](C1)C(C)(C)[C@@H]2NS(=O)(=O)c1ccc(Br)cc1")
0
>>> observed_measurement("CC12CC[C@@H](C1)C(C)(C)[C@@H]2NS(=O)(=O)c1ccc(F)cc1 (single isomer, unassigned; (+))")
23
>>> observed_measurement("CC12CC[C@@H](C1)C(C)(C)[C@@H]2NS(=O)(=O)c1cccs1")
32
>>> observed_measurement("CC12CC[C@@H](C1)C(C)(C)[C@@H]2NS(=O)(=O)c1ccc(Cl)cc1")
0
>>> observed_measurement("CC12CCC(C1)C(C)(C)C2NS(=O)(=O)c1ccc(F)cc1 (stereo not given)")
20
